# system_name: SARS-CoV-2 M^pro (3CL^pro), MBP-tagged 3CL protease (Severe acute respiratory syndrome coronavirus 2, UniProt P0DTD1)
pIC50: −log10 of the molar value.

# smiles_repr, pIC50
records = [
    ("O=C(O)c1cc(C(=O)O)c2c(n1)C(=O)C(=O)c1cc(C(=O)O)[nH]c1-2", 5.55),
]
